target-or-system: triplatin (Triatoma infestans)
Sequence (Q18NS7 19-182 limits assumed): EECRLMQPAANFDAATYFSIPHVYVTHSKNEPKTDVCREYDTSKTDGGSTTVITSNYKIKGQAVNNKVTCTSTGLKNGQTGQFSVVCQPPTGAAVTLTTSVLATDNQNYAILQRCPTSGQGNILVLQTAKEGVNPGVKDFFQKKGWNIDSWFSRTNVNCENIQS
assay-method-text: biochemical
test-readout: pKd
Keep in mind that pKd stands for -log10 of concentration in molar terms.

Answer with the recorded pKd of `CCCCC[C@H](O)/C=C/[C@@H]1[C@@H](C/C=C\CCCC(=O)O)[C@@H](O)C[C@H]1O` only.
6.67

====

target-or-system: triplatin (Triatoma infestans)
test-readout: Kd (nM)
Lab book: enter the figure in nM, no units written.

A selection of reference data follows.
> print(dat)
                                   compound  test.readout  result.unit  measurement
1  CCCCC[C@H](O)/C=C/[C@H]1OC(O)C[C@H](O)[C@@H]1C/C=C\CCCC(=O)O (some centres unmarked)            Kd           nM          355
2  CCCCC[C@H](O)/C=C/[C@H]1CC2CC(C2)[C@@H]1C/C=C\CCCC(=O)O            Kd           nM          369
3  CCCCC[C@H](O)/C=C/[C@@H]1[C@@H](C/C=C\CCCC(=O)O)[C@H]2CO[C@@H]1C2            Kd           nM          294

Turning now to a further record.
State, for triplatin (Triatoma infestans), measured Kd of the compound listed here: `CCCCC[C@H](O)/C=C/[C@H]1C(=O)C=C[C@@H]1C/C=C\CCCC(=O)O`
111
